B1: SMTNL2 (parent)
chain: AFTMAENLANCERLIEVEDMMVMG

Variants of: B1
assayMethodText: protein stability index of a GFP-peptide fusion (GPS, HEK-293T) (PSI 1-6); higher = more stable;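 note: lentivirally expressed fusions sorted by FACS into six bins by GFP to DsRed ratio, PSI derived from sequencing read proportions per bin multiplied by bin number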
settings: c terminus: a fixed tail appended
recordedEndpoint: protein stability index

{"columns": ["variantDescription", "observedMeasurement"],
 "data": [
  ["T3N", 2.42],
  ["R13D", 4.24],
  ["C11R", 3.34],
  ["A9I", 1.89],
  ["A9V", 2.71],
  ["M4P", 3.74],
  ["N7Q", 2.38],
  ["F2Q", 3.22],
  ["A9S", 2.64],
  ["F2Y", 2.22],
  ["M4E", 4.4],
  ["M20P", 3.77],
  ["C11K", 3.59],
  ["E6K", 1.77],
  ["A1S", 2.46],
  ["N7E", 2.21],
  ["E12H", 2.42],
  ["C11Y", 2.51],
  ["A1C", 1.74],
  ["E6C", 2.27],
  ["L14T", 3.5],
  ["M23N", 2.97],
  ["F2P", 4.28],
  ["D19Q", 2.06],
  ["N7R", 2.25],
  ["T3Q", 2.13],
  ["G24L", 1.74],
  ["N10R", 2.24],
  ["A9K", 2.3],
  ["L14E", 3.64],
  ["A1D", 2.47],
  ["E6W", 1.81],
  ["G24H", 1.59],
  ["N10M", 2.1],
  ["I15F", 3.39],
  ["I15R", 3.89],
  ["L14V", 2.47],
  ["M23P", 2],
  ["V17W", 2.09],
  ["T3D", 2.85],
  ["G24Y", 1.27],
  ["L14H", 3.86],
  ["C11T", 2.21],
  ["R13W", 2.42],
  ["M4Y", 3.13],
  ["D19F", 2.37]
]}

meta.source: the supplement of paper PMC10567573
